- Assay Procedure: Sublimation test (cold finger, HPLC quantification of sublimate)
- Assay type: physicochemical
- Cond: conditions of the sublimation test; non-sublimating = less than 1% in 72 hours at 150 mBar, 60° C.
Measured Endpoint: Sublimation (result in words)

- CN1CCN2c3ncccc3Cc3ccccc3[C@H]2C1.O=C(O)/C=C/C(=O)O [S-mirtazapine•fumaric acid, S-mirtazapine fumaric acid salt]: do not sublimate
- Br.CN1CCN2c3ncccc3Cc3ccccc3[C@H]2C1 [S-mirtazapine•HBr, S-mirtazapine hydrobromic acid salt]: do not sublimate
- CN1CCN2c3ncccc3Cc3ccccc3[C@H]2C1.O=C(O)/C=C\C(=O)O [S-mirtazapine•maleic acid, S-mirtazapine maleic acid salt]: do not sublimate
